Recorded values, source PubChem BioAssay (NCI).

Test system: RPMI-8226 leukemia
assay_notes: NCI tumour cell line growth inhibition, 48 h
parameter_measured: TGI (µM)
Your answer is read as µM, so omit the unit and give the number.

Examples with answers:
C=CC(=O)Nc1cc(Nc2ncc(C(=O)OC(C)C)c(-c3cn(C)c4ccccc34)n2)c(OC)cc1N(C)CCN(C)C :: 14.6
Nc1ccccc1C#C/C=C\C#Cc1ccccc1OC(F)(F)F :: 18
COc1ccc(N/N=C2\CCOc3ccc(C)cc3C2=O)cc1 :: 84.1
Cc1c(C(=O)CC(=O)C(=O)Nc2ccccc2C(F)(F)F)[n+](=O)c2ccccc2n1[O-] :: 24.2
C=C(C)C(=O)OC1C/C(CO)=C\C(O)C/C(C)=C/C2OC(=O)C(=C)C21 (configuration not stated) :: 45.6
OC1CSSC1Cn1cnc2c(Nc3ccc(OCc4cccc(F)c4)c(Cl)c3)ncnc21 (configuration not stated) :: 3.74
Cc1ccccc1C(=O)N1CCc2c([nH]c3ccccc23)C1 :: 51.3
COc1ccc2c(c1)sc1nc(-c3ccccc3)c(-c3cccc4ccccc34)n12 :: 27.4

# ---- query compound ----
Per the record, `Cc1cnc(NCCCN(C)C)c2c1[nH]c1ccc3cc(O)ccc3c12` has TGI of 10.1

---

System: RPMI-8226 leukemia
assay_notes: NCI tumour cell line growth inhibition, 48 h; in the data active = GI50 below about 0.43 µM; inactive = the rest
Respond using exactly one of the listed classes: 1 (active), -1 (inactive)

O=C1NC(=NCCc2cccc(F)c2)S/C1=C\c1ccc2ncccc2c1 :: -1

// return assay outcome for OC1CSSC1Cn1cnc2c(Nc3ccc(OCc4cccc(F)c4)c(Cl)c3)ncnc21 (stereo unspecified)
-1

Status in this test for `Nc1ccccc1C#C/C=C\C#Cc1ccccc1OC(F)(F)F` ?
-1

Recorded test call requested for `FC(F)(F)c1cccc(Nc2nc(-c3ccccc3)nc3ncccc23)c1`
-1

What did the test return for `Nc1c(C(=O)c2cccc(CCS(N)(=O)=O)c2)cnn1-c1ccc(F)cc1` ?
-1

Fill in: this test's call for `Cc1ccnc2c1ccc1c(C)ccnc12` is ___
-1

Query: recorded result category for CC1CCC(n2c3cnccc3c3cnc(Nc4ccc5c(n4)CCN(C(=O)CO)C5)nc32)CC1 (stereo unspecified) in this test
-1

Which result was noted for this compound in the test: COc1cc2c(cc1OCCCCN1CCN(CC(=O)Nc3ccc(Cl)cc3C(=O)c3ccccc3Cl)CC1)N=CC1CCCN1C2=O (stereo unspecified)
1

Field: outcome | Entry: `COc1ccc2c(c1)sc1nc(-c3ccccc3)c(-c3cccc4ccccc34)n12`
-1

What did this assay record as the result for `Cc1ccc(NC(=O)Nc2ccc(-c3cccnc3)cc2N2CCC(CO)CC2)cc1` ?
-1

I'd appreciate the recorded outcome for CC1CCc2nc[nH]c(=O)c21 (stereo unspecified) from this test.
-1

---

Form field: TGI (one value per entry).
Test system: SK-MEL-28 melanoma
assay_notes: NCI tumour cell line growth inhibition, 48 h

COc1cc2c(c(OC)c1OC)-c1ccc(NNC(N)=S)c(=O)cc1[C@@H](NC(C)=O)CC2 :: > 100 µM
COc1cc2cc(OC)c3cc4c(cc3c2c(OC)c1OC)OCO4 :: > 57.6 µM
COc1ccc(-c2c(C#N)c(-c3ccc(C)cc3)n(NS(=O)(=O)c3ccc(C)cc3)c(=O)c2C#N)cc1 :: > 100 µM
CN(C)C(=S)N=C(Nc1ccccc1)Nc1ccccc1 :: > 100 µM

Kindly review the next molecule as well.
Field TGI (system: SK-MEL-28 melanoma) for entry `O=C(CCNC12CC3CC(CC(C3)C1)C2)c1ccccc1` = 75.4 µM

---

System: RPMI-8226 leukemia
assay_notes: NCI tumour cell line growth inhibition, 48 h
parameter_measured: TGI (µM)
Note: unit µM is implicit; provide only the numeric part.

// worked examples, TGI included
C1=C2/CC[C@H](Sc3ccccc3)C2C2(CCCCC/1)OCCO2 (stereo partly drawn) :: 73.7
O=C(Nc1ccc(-n2ccc3c(NC(=O)c4ccccc4)nccc32)cc1)c1ccc(Cl)c(C(F)(F)F)c1 :: 5.54
CCOC(=O)Cn1c(C(F)(F)F)nc2nc(Cl)c(Cl)nc21 :: 26.7

Entry O=C1/C(=C\c2ccccc2)C(NC2CCCCC2)c2ccccc21 (stereo not drawn) under RPMI-8226 leukemia had TGI of 2.42

Item `Cc1nc2sccn2c1-c1csc(Nc2ccccc2Cl)n1` was tested on RPMI-8226 leukemia; the reported TGI is 19.1

// molecule `ClCCN1CCC2(CC1)SSC1(CCN(CCCl)CC1)S2` , assay RPMI-8226 leukemia, TGI value: 57.1

Reported TGI (RPMI-8226 leukemia) for entry `CCC(=O)[C@H](C)[C@@H](OC(=O)[C@H](C)CC)[C@H](C)[C@H]1OC(CC)=C(C)C(=O)[C@@H]1C` is 35.1

---

Measured TGI of individual entries
Tested on: M14 melanoma
assay_notes: NCI tumour cell line growth inhibition, 48 h

// worked examples, TGI included
COCO[C@@H]1C[C@H]2C(=O)Nc3ccccc3C(=O)N2C1 :: > 100 µM
Cc1c(C(=O)C/C(=N/NC(=O)c2ccccc2O)C(=O)Nc2ccccc2C(C)C)[n+](=O)c2ccccc2n1[O-] :: > 100 µM
C=CC1(C)CCC2C(=CCC3C2(C)CC(O)C(O)C3(C)COC2OC(C(=O)O)C(O)C(O)C2O)C1 (centres undefined) (tested in a mixture with another compound) :: > 100 µM

Known value: M14 melanoma TGI of the molecule `O=C1/C(=C/c2ccc(O)c(O)c2)CCC/C1=C\c1ccc(O)c(O)c1` equals 18.4 µM

Record `COc1ccc2cc(NC(=O)N/N=C\c3ccc([N+](=O)[O-])cc3)ccc2c1` ; system M14 melanoma; TGI = > 100 µM

Value sought: TGI, system M14 melanoma, item CN1CCCCC1CCN1c2ccccc2Sc2ccc(Cl)cc21 (centres undefined) . Result: 3.97 µM

Log: M14 melanoma, molecule `CC(=O)O[C@@H]1[C@H](C(C)C)[C@@H](OC(C)=O)C/C(C)=C/CC[C@]2(C)O[C@@H]12` , TGI = > 100 µM

`O=c1[nH]c(Nc2cccc(CC(F)(F)F)c2)nc2nc[nH]c12` tested on M14 melanoma gave TGI: > 100 µM

// returns TGI for `Cn1cc(C2=C(c3c4n(c5ccccc35)CCCCC4)C(=O)NC2=O)c2ccccc21` with M14 melanoma; value = > 25 µM

`Cc1nc2sccn2c1-c1csc(Nc2ccccc2Cl)n1` on M14 melanoma gives TGI = 18 µM

With M14 melanoma as the test system, `Nc1nc(-n2c(-c3ccccc3)nc3c(Br)cc(Br)cc3c2=O)nnc1-c1cccc(Cl)c1Cl` showed TGI of 8.42 µM

Observed TGI on M14 melanoma, entry `Cc1ccc([N+](=O)[O-])cc1NC1=NCCO1` , equals > 100 µM

The recorded TGI with M14 melanoma for `Cc1ccnc2c1ccc1c(C)ccnc12` was 10.2 µM

For `c1csc(-c2ccc(-c3cccc4nsnc34)s2)c1` on M14 melanoma, measured TGI was > 100 µM

Hey, M14 melanoma data for `Cc1ccc(-c2n[nH]c(=O)n2N2C(=O)c3ccccc3C2=O)cc1` : TGI came out at > 100 µM

Fill in: M14 melanoma TGI for COc1ccc(CC2c3cc4c(cc3CCN2C)OCO4)c(C=O)c1OC (centres undefined) = > 100 µM

Field TGI (M14 melanoma), entry `Cc1cnc(NCCCN(C)C)c2c1[nH]c1ccc3cc(O)ccc3c12` : 2.55 µM

---

In this section, each of the compounds is paired with its reported TGI.
Test system: SF-295 CNS
assay_notes: NCI tumour cell line growth inhibition, 48 h
Where a SMILES comes first, the peptide text is derived from it. [ ]: non-standard residue; d: D form. The star is where a group is joined. NMeAc5c = CNC1(C(=O)O)CCCC1; Boc = CC(C)(C)OC(=O)*; OBn = c1ccc(CO*)cc1

Use the examples below as a reference point.
[N-]=[N+]=NC[C@H]1OCO[C@H](CN=[N+]=[N-])[C@@H](OCCOCCCl)[C@@H]1OCCOCCCl :: > 100 µM
CC[C@@H]1CC[C@@H]2[C@H](CC[C@]3(C)[C@@H](OC(C)=O)CC[C@@H]23)[C@H]1COC(C)=O :: 65.1 µM

TGI measured on CN(C(=O)C(Cc1ccccc1)NC(=O)OC(C)(C)C)C1(C(=O)NC(Cc2ccccc2)C(=O)OCc2ccccc2)CCCC1 (stereo not drawn) (Boc-Phe-[NMeAc5c]-Phe-OBn; configuration not given here) = > 100 µM

compound `CC1(C)C(=O)/C=C\C(=O)C(C)(C)C2=CC=C(O2)C(C)(C)C(=O)/C=C\C(=O)C(C)(C)C2=CC=C1O2` , TGI observed: > 100 µM

The compound COC(=O)c1ccccc1CC1Cc2ccc3c(c2C1=O)CCCC3 (stereo not drawn) showed TGI equal to > 100 µM

# TGI of `Cc1c(C(=O)CC(=O)C(=O)Nc2ccccc2C(F)(F)F)[n+](=O)c2ccccc2n1[O-]` = > 100 µM

The value of TGI measured for the compound `Cc1cc(Cc2cc(C)c(N)cc2N)c(N)cc1N` turned out to be > 100 µM
